The entries that follow carry Ki values tested on Histamine H3 receptor (Homo sapiens, UniProt Q9Y5N1), drawn from several published reports.
Give a bare numeral; the unit nM is implied.

compound: CSc1ccc(C2CN(C)Cc3cc(OCCCN4CCOC[C@@H]4C)ccc32)cc1 (stereo partly drawn)
experimental_target: Histamine H3 receptor (Homo sapiens, UniProt Q9Y5N1)
recorded_result: 5
--
compound: O=C(c1ccc(C(O)c2ccccc2)cc1)N1CCN(C2CC2)CC1 (stereo not drawn)
experimental_target: Histamine H3 receptor (Homo sapiens, UniProt Q9Y5N1)
recorded_result: 59

Enquiry: Give its Ki value. Item: CN1CCC(Oc2ccc(-c3cc4ccccc4n3S(C)(=O)=O)cc2)CC1
Return: 107

Enquiry: Query CSc1ccc(C2CN(C)Cc3c2ccc(OCCCN2CCOCC2)c3C)cc1 (stereo not drawn) next
Return: 89

Enquiry: Query O=C(c1ccc(C2(O)CCCCC2)cc1)N1CCN(C2CCC2)CC1 next
Return: 7

Enquiry: Query COc1ccc(C2CN(C)Cc3cc(C#CCCN4CCN(C(C)C)CC4)ccc32)cc1 (stereo not drawn) next
Return: 315
